studyTarget: ATP-sensitive potassium channel
assayComment: Comparison of the profile of the novel radioligand with [^3H]P1075 in membrane preparations
conditionDescription: radioligand comparison table; read-out: Affinity
experimentalReadout: Kd (nM)

INSERT INTO results (molecule, experimentalreadout, reported) VALUES
  ('O=C1COCC2=C1C(c1ccc(F)c(I)c1)C1=C(CCS1(=O)=O)N2 (stereo not shown)', 'Kd', 5);

---

studyTarget: UniProt:A0A286XYR9
Sequence (A0A286XYR9 1-1546): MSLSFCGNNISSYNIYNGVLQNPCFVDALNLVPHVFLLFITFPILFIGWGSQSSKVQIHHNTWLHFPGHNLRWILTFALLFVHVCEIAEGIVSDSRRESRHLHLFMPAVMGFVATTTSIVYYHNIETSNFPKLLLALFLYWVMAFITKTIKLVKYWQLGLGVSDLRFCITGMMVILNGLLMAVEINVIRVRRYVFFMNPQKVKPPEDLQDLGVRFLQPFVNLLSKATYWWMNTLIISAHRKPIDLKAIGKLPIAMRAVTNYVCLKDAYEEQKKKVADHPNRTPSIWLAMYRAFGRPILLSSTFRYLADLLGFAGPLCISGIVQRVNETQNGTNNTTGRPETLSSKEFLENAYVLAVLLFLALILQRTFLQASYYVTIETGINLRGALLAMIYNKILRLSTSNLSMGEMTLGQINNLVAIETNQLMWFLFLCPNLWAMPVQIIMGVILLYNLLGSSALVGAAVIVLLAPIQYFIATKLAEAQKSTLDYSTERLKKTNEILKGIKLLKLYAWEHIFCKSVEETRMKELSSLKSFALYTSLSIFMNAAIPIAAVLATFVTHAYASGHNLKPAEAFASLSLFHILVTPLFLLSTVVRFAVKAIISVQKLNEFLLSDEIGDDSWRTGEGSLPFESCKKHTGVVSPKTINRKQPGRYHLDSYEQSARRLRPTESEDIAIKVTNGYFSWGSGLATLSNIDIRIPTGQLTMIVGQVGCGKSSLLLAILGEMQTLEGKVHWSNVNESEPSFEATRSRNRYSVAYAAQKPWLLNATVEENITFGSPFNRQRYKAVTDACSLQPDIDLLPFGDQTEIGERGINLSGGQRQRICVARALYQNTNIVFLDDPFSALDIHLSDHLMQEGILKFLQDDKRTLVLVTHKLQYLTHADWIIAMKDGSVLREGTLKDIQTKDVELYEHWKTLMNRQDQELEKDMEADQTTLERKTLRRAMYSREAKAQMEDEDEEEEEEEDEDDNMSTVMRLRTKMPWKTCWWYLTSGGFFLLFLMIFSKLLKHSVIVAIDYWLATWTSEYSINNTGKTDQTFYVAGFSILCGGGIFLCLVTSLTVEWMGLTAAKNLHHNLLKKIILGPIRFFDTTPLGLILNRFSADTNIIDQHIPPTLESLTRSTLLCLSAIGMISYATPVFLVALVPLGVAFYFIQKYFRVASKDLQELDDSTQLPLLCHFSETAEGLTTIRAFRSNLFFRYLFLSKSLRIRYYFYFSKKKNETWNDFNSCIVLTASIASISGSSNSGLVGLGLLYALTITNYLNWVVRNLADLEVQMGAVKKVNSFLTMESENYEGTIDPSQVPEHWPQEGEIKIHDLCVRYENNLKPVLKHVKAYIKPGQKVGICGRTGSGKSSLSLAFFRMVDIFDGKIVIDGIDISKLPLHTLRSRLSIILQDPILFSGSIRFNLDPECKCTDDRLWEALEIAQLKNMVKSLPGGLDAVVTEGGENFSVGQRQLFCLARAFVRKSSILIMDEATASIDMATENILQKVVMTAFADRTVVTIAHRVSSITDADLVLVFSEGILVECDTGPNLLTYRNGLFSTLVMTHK
pKd: −log10 of the molar value.
experimentalReadout: pKd

INSERT INTO results (compound, reported) VALUES
  ('O=C1COCC2=C1C(c1ccc(F)c(I)c1)C1=C(CCS1(=O)=O)N2 (stereo not shown)', 8.23);
